System: SF-295 CNS
ASSAY_INFO: NCI tumour cell line growth inhibition, 48 h
ASSAY_METRIC: TGI

Lab note: compound O=C1c2ccccc2C(O)(C(=O)O)C1(O)CC=C(Cl)Cl (stereo not drawn) tested on SF-295 CNS; recorded TGI was > 125 µM

Lab note: compound `Cc1c(NC(=O)C(C)(C)Br)c(=O)oc2c(C)c3occc(=O)c3cc12` tested on SF-295 CNS; recorded TGI was > 100 µM

Lab note: compound `O=C1C(=O)c2c(oc(=O)c3ccccc23)-c2ccccc21` tested on SF-295 CNS; recorded TGI was > 25 µM

* * *

So I've got a bunch of compounds here, and I need their TGI values.
Tested on: NCI-H226 lung
ASSAY_INFO: NCI tumour cell line growth inhibition, 48 h

Lab note: compound `Nc1nc(N)c2cc(Sc3ccc4nc(N)nc(N)c4c3)ccc2n1` tested on NCI-H226 lung; recorded TGI was > 100 µM

Lab note: compound O=c1ccn(C2OC(CO)C(O)C2F)c(=O)[nH]1 (stereo not drawn) tested on NCI-H226 lung; recorded TGI was > 1000 µM

Lab note: compound CCCCCCCCCCCCCCCCCCNc1ccn(C2OC(COP(=O)(O)OC3CC(n4cc(F)c(=O)[nH]c4=O)OC3COP(=O)(O)OCC3OC(n4ccc(N)nc4=O)C(O)C3O)C(O)C2O)c(=O)n1 (stereo not drawn) tested on NCI-H226 lung; recorded TGI was > 82.2 µM

Lab note: compound `CCNC(=O)CCN(C(=O)O)S(=O)(=O)c1ccc(NC(=O)c2ccccc2)cc1` tested on NCI-H226 lung; recorded TGI was > 100 µM

Lab note: compound `O=C(Nc1cccc2ccccc12)Nn1cnnc1` tested on NCI-H226 lung; recorded TGI was > 100 µM

Lab note: compound `COC(=O)c1cc2c(cc1Cl)SC(N(N(C)C)S(=O)(=O)c1ccc(Br)s1)=NS2(=O)=O` tested on NCI-H226 lung; recorded TGI was > 100 µM

Lab note: compound COc1ccc(/C=C2\CCC(CNc3cc(C)on3)C2=O)cc1 (stereo not drawn) tested on NCI-H226 lung; recorded TGI was > 100 µM

Lab note: compound C=CCC(N[C@H](CO)c1ccccc1)c1ccc2ccccc2n1 (stereo partly drawn) tested on NCI-H226 lung; recorded TGI was > 100 µM

Lab note: compound `CN(C)C=Nc1cccc2nsnc12` tested on NCI-H226 lung; recorded TGI was > 100 µM

Lab note: compound CN1C2CCC1CC(CCOC(c1ccc(F)cc1)c1ccc(F)cc1)C2 (stereo not drawn) tested on NCI-H226 lung; recorded TGI was 29.1 µM

Lab note: compound `CC(=O)Oc1cc2c(n(C)c1=O)-c1ccccc1C2` tested on NCI-H226 lung; recorded TGI was > 100 µM

Lab note: compound O=C(c1ccccc1)c1ccc2nc3n(c2c1)C(c1c(F)cccc1F)SC3 (stereo not drawn) tested on NCI-H226 lung; recorded TGI was > 79.2 µM

Lab note: compound `CSc1nc(C)c2c(n1)SCC2` tested on NCI-H226 lung; recorded TGI was > 10 µM

Lab note: compound Cc1oc2c(c1C)S(=O)(=O)C(C#N)C(c1ccccc1)N2 (stereo not drawn) tested on NCI-H226 lung; recorded TGI was > 100 µM

Lab note: compound `Cc1ccc(-n2cnc3c(N)nc(N)nc32)cc1` tested on NCI-H226 lung; recorded TGI was > 100 µM

Lab note: compound COc1ccc(NC(=O)C(=O)C(C(=O)c2ccccc2)C2OC(=O)c3ccccc32)c([N+](=O)[O-])c1 (stereo not drawn) tested on NCI-H226 lung; recorded TGI was > 100 µM

Lab note: compound `COc1ccc(Nc2nnc(CCCCCCCCc3nnc(Nc4ccc(OC)cc4)o3)o2)cc1` tested on NCI-H226 lung; recorded TGI was > 100 µM

Lab note: compound `COc1ccc([N+](=O)[O-])c2c(NCCCN(C)C)c3ccccc3nc12` tested on NCI-H226 lung; recorded TGI was 0.862 µM

Lab note: compound `Nc1nc(Cl)c(N)c(NCC2(CO)CCC2)n1` tested on NCI-H226 lung; recorded TGI was > 100 µM

Lab note: compound `COc1cc(OC)c(/C=C/S(=O)(=O)Cc2cnc(OC)c(N)c2)c(OC)c1` tested on NCI-H226 lung; recorded TGI was > 100 µM

Lab note: compound `COC(=O)c1cc2c(o1)Sc1ccccc1NC2=O` tested on NCI-H226 lung; recorded TGI was > 100 µM

Lab note: compound `N=c1oc2ccc([N+](=O)[O-])cc2cc1C(=O)NCc1ccccc1` tested on NCI-H226 lung; recorded TGI was 26.9 µM

Lab note: compound `Cc1c(NC(=O)C(C)(C)Br)c(=O)oc2c(C)c3occc(=O)c3cc12` tested on NCI-H226 lung; recorded TGI was 71.9 µM

* * *

Tested on: LOX IMVI melanoma
ASSAY_INFO: NCI tumour cell line growth inhibition, 48 h
Where a SMILES comes first, the peptide text is derived from it. [ ]: non-standard residue; d: D form. Ac5c = NC1(C(=O)O)CCCC1
TGI of 10 µM or higher: label 1. Under 10 µM: label 0.

// inclusive: TGI at least 10 µM? input: `COc1cc(/C=C(\C#N)C(=O)c2ccccc2)ccc1OCc1ccccc1`
label 1

// inclusive: TGI at least 10 µM? input: `O=c1[nH]n(Cc2ccccc2Cl)c2ccc([N+](=O)[O-])cc12`
label 1

// inclusive: TGI at least 10 µM? input: NC1(C(=O)NC2(C(=O)O)CCCC2)CCCC1 (H-[Ac5c]-[Ac5c]-OH)
label 1

// inclusive: TGI at least 10 µM? input: `O=[n+]1c2ccccc2n([O-])c2ccccc21`
label 1

// inclusive: TGI at least 10 µM? input: `CCN1CCN(C(=O)[C@]23CC[C@@H](C)[C@H](C)[C@@H]2C2=CC[C@@H]4[C@@]5(C)C/C(=C/c6ccncc6)C(=O)C(C)(C)[C@@H]5CC[C@@]4(C)[C@]2(C)CC3)CC1`
label 0

// inclusive: TGI at least 10 µM? input: `CCNC(=O)CCN(C(=O)O)S(=O)(=O)c1ccc(NC(=O)c2ccccc2)cc1`
label 1

// inclusive: TGI at least 10 µM? input: `Cc1oc2c(c1C)S(=O)(=O)C(C#N)=C(c1ccccc1)N2`
label 1

// inclusive: TGI at least 10 µM? input: `CC(=O)c1c(C)[nH]c(-c2nc3ccc(N4CCN(C)CC4)cc3[nH]2)c1-c1ccc(OCC2CCOCC2)cc1`
label 0

// inclusive: TGI at least 10 µM? input: CC(C)(C)[Si](C)(C)O[C@@H](C(=O)OC1C=CCCC1)[C@@H](NC(=O)c1ccccc1)c1ccccc1 (some centres undefined)
label 1

// inclusive: TGI at least 10 µM? input: `COc1cc(OC)c(/C=C/S(=O)(=O)Cc2cnc(OC)c(N)c2)c(OC)c1`
label 1

// inclusive: TGI at least 10 µM? input: CCN(CC)CCC(=O)NC1c2ccc(Cl)cc2Oc2c(C)cccc21 (centres undefined)
label 1

// inclusive: TGI at least 10 µM? input: `O=c1c2c(nc3n1CCS3)[nH]c1ccccc12`
label 1

// inclusive: TGI at least 10 µM? input: `COc1ccc(OC)c2sc(N3C(=O)/C(=C/c4ccc(Cl)cc4)N=C3c3ccccc3)nc12`
label 1

// inclusive: TGI at least 10 µM? input: c1ccc2c(c1)CCC/C2=N\OCC1CO1 (centres undefined)
label 1

// inclusive: TGI at least 10 µM? input: `O=C1c2ccccc2-c2c1c1ccccc1c(=O)n2CCCNCCCn1ccnc1`
label 0

// inclusive: TGI at least 10 µM? input: CC12OC(c3ccccc3)=CC(c3ccc(Cl)cc3)=C1C(c1ccccc1)=CC2=O (centres undefined)
label 1

// inclusive: TGI at least 10 µM? input: COc1cc(OC)cc(C2CC(=O)Nc3c2c(C)nn3-c2nc3ccccc3[nH]2)c1 (centres undefined)
label 0

// inclusive: TGI at least 10 µM? input: `N#C/C(=C\c1cn(Cc2ccccc2)c2ccccc12)c1nn(-c2ccccc2)c(N)c1C#N`
label 1

// inclusive: TGI at least 10 µM? input: COc1ccc(N2C(=O)CC(Cl)C2=O)cc1 (centres undefined)
label 1

// inclusive: TGI at least 10 µM? input: `COc1ccc(Nc2nnc(CCCCCCCCc3nnc(Nc4ccc(OC)cc4)o3)o2)cc1`
label 1

// inclusive: TGI at least 10 µM? input: `CCCCOC(=O)NC(=O)c1cn(CCCOC(=O)CCCCCCCCC(=O)OCCCn2cc(C(=O)NC(=O)OCCCC)c(=O)[nH]c2=O)c(=O)[nH]c1=O`
label 1

// inclusive: TGI at least 10 µM? input: `CC1=C2[C@@H](CC1)[C@]1(C)O[C@@](C3CCCCC3)(C[C@H]1OC(=O)CO)[C@H]2OC(=O)/C=C/c1ccccc1`
label 1

// inclusive: TGI at least 10 µM? input: `COc1cc(Cl)c2c3c(c(C(C)=O)oc13)CCC2`
label 1

// inclusive: TGI at least 10 µM? input: `O=C(/C=C/c1ccc([N+](=O)[O-])o1)N1CCN(Cc2ccccc2)CC1`
label 1

Cited source: PubChem BioAssay (NCI)
